Assay: in vivo
Conditions: male, Sprague-Dawley, rat
recorded metric: Cmax

Request: Which Cmax reading was recorded for the compound COc1cccc2c1C(=O)c1c(O)c3c(c(O)c1C2=O)C[C@@](O)(C(=O)CO)C[C@@H]3O[C@H]1C[C@H](N)[C@H](O)[C@H](C)O1 ?
Response: ~600 nM
